test: photoluminescence quantum yield (fraction); solvent given as SMILES; settings: in CCCCCCO
Assay metric: photoluminescence quantum yield

molecule="COC(=O)C(Cc1ccc2oc(-c3ccc(N(C)C)cc3)nc2c1)NC(=O)OC(C)(C)C (configuration not stated)" recorded_value=1
molecule=CCN(CC)c1ccc2c(C)cc(=O)oc2c1 recorded_value=0.66
molecule=CN(C)c1ccc2c(c1)Cc1ccccc1-2 recorded_value=0.22
molecule=CC1=C(C(C)(C)C)C(C)=[N+]2C1=C(C)c1c(C)c(C(C)(C)C)c(C)n1[B-]2(F)F recorded_value=0.42
molecule=CCNc1ccc2c(C(F)(F)F)cc(=O)oc2c1 recorded_value=0.54
molecule="COC(=O)C(Cc1ccc2oc(-c3ccc(N(C)c4ccccc4)cc3)nc2c1)NC(=O)OC(C)(C)C (configuration not stated)" recorded_value=0.22
molecule=Cn1cc(/C=C/C(=O)c2ccccc2)c2ccccc21 recorded_value=0.428
